Give Population Tubulin-Different-Phenotype (%) for every item shown.
- Tested on: U2OS
- ASSAY DETAILS: Multiplex assay against U2OS
- Type: toxicity, cell-based
- MEASUREMENT PARAMETERS: human, 48 h, 10 µM, compound concentration 10 uM, replicate 1
Numbers only, in %.

Example compounds with recorded Population Tubulin-Different-Phenotype (%):
# COMPOUND, ENDPOINT RESULT
data = [
    ("CN1CCN(Cc2ccc(Nc3ncc(Cl)c(Nc4ccccc4S(=O)(=O)N(C)C)n3)cc2)CC1 [DUBERMATINIB]", 33),
    ("COc1cc(Nc2nccc(-c3cnn4nc(OC)ccc34)n2)cc(C(F)(F)F)c1", 21),
    ("COC(=O)C1=C(C)NC(C)=C(C(=O)OCCCN2CCC(c3ccccc3)(c3ccccc3)CC2)[C@H]1c1cccc([N+](=O)[O-])c1 [NIGULDIPINE]", 100),
]

Please supply Population Tubulin-Different-Phenotype (%) for each of the following items, keeping them in order.
1. O=c1cc(N2CCOCC2)oc2c(-c3cccc4c3sc3ccccc34)cccc12
2. C[C@]12CC[C@@H]3c4ccc(O)cc4CC[C@H]3[C@@H]1CC[C@@H]2O [ESTRADIOL]
3. Cc1cccc(CN2CCN(C(c3ccccc3)c3ccc(Cl)cc3)CC2)c1.Cl.Cl (centres undefined)
4. Cc1c[nH]c2nccc(Oc3c(F)cc(Nc4cc(Cl)nc(N)n4)cc3F)c12 [BAY-549]
5. CC(C)(C)NC[C@H](O)COc1nsnc1N1CCOCC1 [TIMOLOL]
6. CC(C)NC(=O)N1CC[C@H](NC2=Nc3cc(F)ccc3N(CC(F)F)c3ccc(Cl)cc32)C1

Outgoing:
77
12
44
19
6
76
